Cited source: paper PMC6082870

- SYSTEM_UNDER_TEST: LH3 W75A mutant (human, UniProt O60568 25-738, W75A)
- Sequence (O60568 25-738 W75A): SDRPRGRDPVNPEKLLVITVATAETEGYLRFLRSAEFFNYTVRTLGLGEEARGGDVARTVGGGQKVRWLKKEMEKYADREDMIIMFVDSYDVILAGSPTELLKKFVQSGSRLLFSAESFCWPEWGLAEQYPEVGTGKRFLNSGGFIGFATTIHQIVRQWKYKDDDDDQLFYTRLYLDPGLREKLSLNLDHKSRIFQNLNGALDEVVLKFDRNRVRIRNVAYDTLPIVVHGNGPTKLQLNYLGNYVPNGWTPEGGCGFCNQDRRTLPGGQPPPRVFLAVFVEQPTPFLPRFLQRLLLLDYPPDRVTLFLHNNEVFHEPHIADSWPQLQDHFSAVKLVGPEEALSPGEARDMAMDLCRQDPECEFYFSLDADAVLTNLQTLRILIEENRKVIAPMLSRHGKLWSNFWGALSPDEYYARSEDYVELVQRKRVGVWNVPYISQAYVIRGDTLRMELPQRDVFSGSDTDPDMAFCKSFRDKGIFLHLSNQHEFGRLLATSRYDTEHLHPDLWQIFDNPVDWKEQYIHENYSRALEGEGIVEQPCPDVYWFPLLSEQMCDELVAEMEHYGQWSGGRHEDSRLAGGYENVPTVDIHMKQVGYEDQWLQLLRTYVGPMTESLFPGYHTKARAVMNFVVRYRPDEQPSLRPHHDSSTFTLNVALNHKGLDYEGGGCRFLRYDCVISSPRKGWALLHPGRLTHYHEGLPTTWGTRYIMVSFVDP
- METHOD_SUMMARY: SPR
pKd: −log10 of the molar value.
READOUT_LABEL: pKd

binder=ARGIKGIRGFS assay_value=2.33
